TGT: SIRT3 (Homo sapiens)
Sequence (Q9NTG7 whole entry): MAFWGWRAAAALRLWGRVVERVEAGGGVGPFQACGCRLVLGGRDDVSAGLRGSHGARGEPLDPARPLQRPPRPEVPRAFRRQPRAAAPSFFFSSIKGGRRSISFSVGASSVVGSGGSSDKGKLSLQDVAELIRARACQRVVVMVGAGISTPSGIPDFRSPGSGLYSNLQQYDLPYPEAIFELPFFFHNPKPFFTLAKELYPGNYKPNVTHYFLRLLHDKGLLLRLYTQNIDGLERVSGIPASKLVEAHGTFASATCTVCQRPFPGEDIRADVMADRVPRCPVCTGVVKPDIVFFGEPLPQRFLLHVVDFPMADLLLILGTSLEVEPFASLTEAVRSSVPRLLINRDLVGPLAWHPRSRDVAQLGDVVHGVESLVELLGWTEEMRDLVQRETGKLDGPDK
PROTOCOL_DETAILS: In vitro SIRT3 deacetylation inhibition, H3K9-Ac peptide substrate
Type: biochemical
EXPERIMENTAL_PARAMETERS: read-out: SIRT3 Deacetylation IC50, with 15 min pre-incubation
pIC50: −log10 of the molar value.
TEST_READOUT: pIC50

(Q) Sample CCCCCCCCCCCCCC(=S)NCCCCC(NC(=O)OCc1ccccc1)C(=O)Nc1ccccc1 (stereo not shown) — what was its pIC50?
(A) < 4.30

---

System: MCF10A
TEST_READOUT: GI50

(Q) I would be grateful if you could share the reported GI50 for CCCCCCCCCCCCCC(=S)NCCCCC(NC(=O)OCc1ccccc1)C(=O)Nc1ccccc1 (stereo not shown) [TM] .
(A) > 50 µM

---

Tested on: HME1
TEST_READOUT: GI50

(Q) # lookup: GI50 of CCCCCCCCCCCCCC(=S)NCCCCC(NC(=O)OCc1ccccc1)C(=O)Nc1ccccc1 (stereo not shown) [TM]
(A) > 50 µM
